Biological target: canine TRPM8 (Canis lupus familiaris, UniProt Q1A7N1)
Construct: expressed in transfected cells
Sequence (Q1A7N1 1-1104): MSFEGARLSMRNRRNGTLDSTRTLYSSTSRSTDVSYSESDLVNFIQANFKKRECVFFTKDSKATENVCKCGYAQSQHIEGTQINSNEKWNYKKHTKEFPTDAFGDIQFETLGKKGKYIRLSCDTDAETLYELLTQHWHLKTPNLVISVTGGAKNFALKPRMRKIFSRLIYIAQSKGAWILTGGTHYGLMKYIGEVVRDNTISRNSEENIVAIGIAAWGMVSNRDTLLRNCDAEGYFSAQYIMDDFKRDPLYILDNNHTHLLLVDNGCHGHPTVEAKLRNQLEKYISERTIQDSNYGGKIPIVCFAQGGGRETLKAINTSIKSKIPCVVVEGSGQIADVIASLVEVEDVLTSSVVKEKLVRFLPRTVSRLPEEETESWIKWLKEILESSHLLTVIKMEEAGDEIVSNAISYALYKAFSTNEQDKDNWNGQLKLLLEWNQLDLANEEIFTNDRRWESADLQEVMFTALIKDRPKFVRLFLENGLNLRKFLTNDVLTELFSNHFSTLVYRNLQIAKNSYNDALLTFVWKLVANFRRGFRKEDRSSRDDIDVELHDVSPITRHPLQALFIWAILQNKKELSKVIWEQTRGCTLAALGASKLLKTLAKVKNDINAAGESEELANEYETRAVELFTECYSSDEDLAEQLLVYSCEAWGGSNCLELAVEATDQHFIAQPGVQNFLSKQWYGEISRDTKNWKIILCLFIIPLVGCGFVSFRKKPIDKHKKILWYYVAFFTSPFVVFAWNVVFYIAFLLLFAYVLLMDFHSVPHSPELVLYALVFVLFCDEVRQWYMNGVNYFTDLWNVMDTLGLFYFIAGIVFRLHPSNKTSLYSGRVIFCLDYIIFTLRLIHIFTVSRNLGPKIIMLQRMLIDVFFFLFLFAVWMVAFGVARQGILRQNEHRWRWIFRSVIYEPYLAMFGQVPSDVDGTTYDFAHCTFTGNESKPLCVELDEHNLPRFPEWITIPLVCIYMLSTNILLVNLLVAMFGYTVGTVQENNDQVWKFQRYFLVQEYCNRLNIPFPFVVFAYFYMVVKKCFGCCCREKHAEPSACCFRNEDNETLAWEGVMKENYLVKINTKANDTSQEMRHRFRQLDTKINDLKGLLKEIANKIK
Assay: In Vitro Canine TRPM8 Functional Assay (Ca2+ fluorescence, icilin activation)
Format: cell-based
Details: HEK293, 1 μM compound; canine TRPM8 HEK293; icilin
measured.metric: inhibition at 1 µM (%)

> print(dat)
                                   compound                             target.system     measured.metric  endpoint.value
1  O=C(C(Nc1ccccc1)c1ccc(C(F)(F)F)cc1)N1CCCC1c1ccccc1F (centres unmarked)  canine TRPM8 (Canis lupus familiaris, UniProt Q1A7N1)  inhibition at 1 µM             101
2  CC(C)(C)c1ccc(C(Nc2ccccc2)C(=O)N2CCC(O)(c3ccccn3)CC2)cc1 (centres unmarked)  canine TRPM8 (Canis lupus familiaris, UniProt Q1A7N1)  inhibition at 1 µM             102
3  CC(C)(C)c1ccc(C(Nc2ccccc2)C(=O)N2CCCC2c2ccccc2Cl)cc1 (single isomer, unassigned)  canine TRPM8 (Canis lupus familiaris, UniProt Q1A7N1)  inhibition at 1 µM             101

1 = CC(C)(C)c1ccc(C(Nc2ccccc2)C(=O)N2CCCC2c2cccnc2)cc1 (centres unmarked)
2 = O=C(C(c1ccc(C(F)(F)F)cc1)N1CCc2ccccc21)N1CCc2ccccc21 (centres unmarked)
Of 1 and 2 , which shows the smaller inhibition at 1 µM value? # reply format: chosen label
2

Where these numbers come from: patent US8143259B2
